# Test system: axenic Leishmania donovani MHOM-ET-67/L82 amastigotes
# Procedure Text: In vitro antiprotozoal assay, axenic amastigotes
# Format: cell-based
# Measurement Parameters: axenic amastigotes; read-out: L.don.ax. IC50
Square brackets hold non-standard residues; d marks the D form. Peptide text beside a SMILES is read from it. * marks the point of attachment. NH((S)CH(Me)CH2NMe2) = C[C@@H](CN(C)C)N*; Gly(octyl) = CCCCCCCC[C@H](N)C(=O)O; X4 = COc1ccc2cc(C(=O)*)c(=O)oc2c1; X5 = O=C(C1CCc2ccccc2C1)*; Aib = CC(C)(N)C(=O)O; Bz = O=C(c1ccccc1)*; βAla = NCCC(=O)O
Readout Label: IC50 (nM)
Output spec: scalar in nM, unitless text.

>  <Molecule>
CCCCCCCC[C@H](NC(=O)[C@@H]1CCCN1C(=O)c1cc2ccc(OC)cc2oc1=O)C(=O)N[C@@H](CC(C)C)C(=O)NC(C)(C)C(=O)N[C@@H](CC(C)C)C(=O)N[C@@H](CC(C)C)C(=O)NC(C)(C)C(=O)NC(C)(C)C(=O)NCCC(=O)N[C@@H](C)CN(C)C [Compound 5769] (X4-P[Gly(octyl)]L[Aib]LL[Aib][Aib][βAla]-{NH((S)CH(Me)CH2NMe2)})

>  <Data Value>
8.1

$$$$
>  <Molecule>
CCCCCCCC[C@H](NC(=O)[C@@H]1CCCN1C(=O)c1ccccc1)C(=O)N[C@@H](CC(C)C)C(=O)NC(C)(C)C(=O)N[C@@H](CC(C)C)C(=O)N[C@@H](CC(C)C)C(=O)NC(C)(C)C(=O)NC(C)(C)C(=O)NCCC(=O)N[C@@H](C)CN(C)C [Compound 5649] (Bz-P[Gly(octyl)]L[Aib]LL[Aib][Aib][βAla]-{NH((S)CH(Me)CH2NMe2)})

>  <Data Value>
3.5

$$$$

Assay axenic Leishmania donovani MHOM-ET-67/L82 amastigotes, sample CCCCCCCC[C@H](NC(=O)[C@@H]1CCCN1C(=O)C1CCc2ccccc2C1)C(=O)N[C@@H](CC(C)C)C(=O)NC(C)(C)C(=O)N[C@@H](CC(C)C)C(=O)N[C@@H](CC(C)C)C(=O)NC(C)(C)C(=O)NC(C)(C)C(=O)NCCC(=O)N[C@@H](C)CN(C)C (stereo partly drawn) [Compound 5910] (X5-P[Gly(octyl)]L[Aib]LL[Aib][Aib][βAla]-{NH((S)CH(Me)CH2NMe2)}) , IC50 read: 2.1

----------
# Tested on: axenic Leishmania donovani MHOM-ET-67/L82 amastigotes
# Procedure Text: In vitro antiprotozoal assay, axenic amastigotes
# Format: cell-based
# Measurement Parameters: axenic amastigotes; read-out: L.don.ax. IC50
Square brackets hold non-standard residues; d marks the D form. Peptide text beside a SMILES is read from it. * marks the point of attachment. NH((S)CH(Me)CH2NMe2) = C[C@@H](CN(C)C)N*; Gly(octyl) = CCCCCCCC[C@H](N)C(=O)O; Pyrrole2CO = O=C(c1ccc[nH]1)*; X9 = O=C(c1ccc2ocnc2c1)*; Aib = CC(C)(N)C(=O)O; βAla = NCCC(=O)O
Readout Label: IC50 (nM)
Output spec: scalar in nM, unitless text.

Recorded IC50 (compound CCCCCCCC[C@H](NC(=O)[C@@H]1CCCN1C(=O)c1ccc2ocnc2c1)C(=O)N[C@@H](CC(C)C)C(=O)NC(C)(C)C(=O)N[C@@H](CC(C)C)C(=O)N[C@@H](CC(C)C)C(=O)NC(C)(C)C(=O)NC(C)(C)C(=O)NCCC(=O)N[C@@H](C)CN(C)C [Compound 5937] (X9-P[Gly(octyl)]L[Aib]LL[Aib][Aib][βAla]-{NH((S)CH(Me)CH2NMe2)}) ): 21.2

Recorded IC50 (compound CCCCCCCC[C@H](NC(=O)[C@@H]1CCCN1C(=O)c1ccc[nH]1)C(=O)N[C@@H](CC(C)C)C(=O)NC(C)(C)C(=O)N[C@@H](CC(C)C)C(=O)N[C@@H](CC(C)C)C(=O)NC(C)(C)C(=O)NC(C)(C)C(=O)NCCC(=O)N[C@@H](C)CN(C)C [Compound 5939] (Pyrrole2CO-P[Gly(octyl)]L[Aib]LL[Aib][Aib][βAla]-{NH((S)CH(Me)CH2NMe2)}) ): 8
